B1: glmS ribozyme (parent)
chain: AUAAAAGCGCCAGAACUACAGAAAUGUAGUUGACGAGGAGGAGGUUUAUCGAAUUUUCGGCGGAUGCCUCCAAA

Variants of: B1
Experiment: self-cleavage kobs at 2500 uM GlcN6P; higher = faster cleavage; RNA array
Settings: with glucosamine-6-phosphate
This sample holds only a part of the variants without activity.
# maps each entry to its self-cleavage kobs at 2500 uM GlcN6P

Example results:
>  <mutation_label>
G9A G51U U56G G63C

>  <self-cleavage kobs at 2500 uM GlcN6P>
< 1e-05 s⁻¹

$$$$
>  <mutation_label>
G35U G43U G60A

>  <self-cleavage kobs at 2500 uM GlcN6P>
< 1e-05 s⁻¹

$$$$
>  <mutation_label>
A12U A15C U45C A48C

>  <self-cleavage kobs at 2500 uM GlcN6P>
< 1e-05 s⁻¹

$$$$

// field: self-cleavage kobs at 2500 uM GlcN6P; key: G35U U45G U46G A64G ; value = < 1e-05 s⁻¹

// field: self-cleavage kobs at 2500 uM GlcN6P; key: C8U U45G ; value = < 1e-05 s⁻¹

// field: self-cleavage kobs at 2500 uM GlcN6P; key: C61G G62A ; value = < 1e-05 s⁻¹

// field: self-cleavage kobs at 2500 uM GlcN6P; key: A12C C16U U31G G41U G43U ; value = < 1e-05 s⁻¹

// field: self-cleavage kobs at 2500 uM GlcN6P; key: A15G A36U G41U C70U ; value = < 1e-05 s⁻¹
